System Name: EGFR (Homo sapiens)
Sequence (P00533 25-1210): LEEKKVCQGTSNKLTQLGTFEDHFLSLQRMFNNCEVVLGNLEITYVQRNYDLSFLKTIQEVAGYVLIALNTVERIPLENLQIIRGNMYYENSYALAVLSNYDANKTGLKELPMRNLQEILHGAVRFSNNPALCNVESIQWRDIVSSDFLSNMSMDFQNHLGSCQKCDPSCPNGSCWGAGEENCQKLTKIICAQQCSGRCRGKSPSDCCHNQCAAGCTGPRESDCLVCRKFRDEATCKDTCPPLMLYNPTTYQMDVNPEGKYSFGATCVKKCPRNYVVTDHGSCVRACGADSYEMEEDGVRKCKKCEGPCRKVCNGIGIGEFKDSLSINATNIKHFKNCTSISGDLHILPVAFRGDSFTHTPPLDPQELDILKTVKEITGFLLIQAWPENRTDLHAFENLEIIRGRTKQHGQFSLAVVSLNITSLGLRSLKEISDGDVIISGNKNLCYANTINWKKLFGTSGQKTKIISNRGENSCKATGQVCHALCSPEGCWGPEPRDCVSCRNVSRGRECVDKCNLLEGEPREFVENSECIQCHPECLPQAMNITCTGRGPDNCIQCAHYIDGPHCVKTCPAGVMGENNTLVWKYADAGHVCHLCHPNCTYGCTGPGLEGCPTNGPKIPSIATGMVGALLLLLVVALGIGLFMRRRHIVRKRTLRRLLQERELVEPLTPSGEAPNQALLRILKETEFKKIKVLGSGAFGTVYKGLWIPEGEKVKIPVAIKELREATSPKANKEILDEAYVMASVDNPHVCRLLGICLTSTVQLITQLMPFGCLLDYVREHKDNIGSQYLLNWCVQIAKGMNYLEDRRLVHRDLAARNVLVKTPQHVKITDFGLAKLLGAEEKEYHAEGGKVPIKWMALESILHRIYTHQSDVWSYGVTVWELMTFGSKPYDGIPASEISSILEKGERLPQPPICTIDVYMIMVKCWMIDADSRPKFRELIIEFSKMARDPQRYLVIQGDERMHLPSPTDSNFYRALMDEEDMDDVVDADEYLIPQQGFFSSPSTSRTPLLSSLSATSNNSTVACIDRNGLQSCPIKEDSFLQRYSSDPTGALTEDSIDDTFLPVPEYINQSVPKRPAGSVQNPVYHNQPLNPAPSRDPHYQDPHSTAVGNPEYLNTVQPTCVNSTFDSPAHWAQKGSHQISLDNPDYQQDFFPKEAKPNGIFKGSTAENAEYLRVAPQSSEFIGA
Assay Comment: In vitro EGFR tyrosine kinase inhibitory assay (Z'-LYTE, SelectScreen)
Type: biochemical
Stated Conditions: 0.1 nM compound, 10 μM ATP; read-out: % Inhibition mean, EGFR (ErbB1)
The following compounds are shown together with reported inhibition at 0.0001 µM values.
Measured Quantity: inhibition at 0.0001 µM

INSERT INTO measurements (compound, meas_value) VALUES
  ('Cc1c(C(=O)NCCCC(=O)NO)sc2ncnc(Nc3ccccc3)c12 [Compound 20b]', '2%'),
  ('Cc1c(C(=O)NO)sc2ncnc(Nc3ccc(Cl)cc3)c12 [Compound 15c]', '0%'),
  ('Cc1c(C(=O)NCCCC(=O)NO)sc2ncnc(Nc3ccc(NC(=O)Nc4cccc(C(F)(F)F)c4)cc3)c12 [Compound 12c]', '6%'),
  ('Cc1c(C(=O)NCCCC(=O)NO)sc2ncnc(Nc3ccc(F)c(Cl)c3)c12 [Compound 20d]', '1%');

###

Reported Mean % inhibition HDAC6 values for a set of compounds
System Name: HDAC6 (Homo sapiens, UniProt Q9UBN7)
Construct: purchased BPS Bioscience 50006
Assay Comment: In vitro HDAC6 inhibitory assay (BPS Bioscience, fluorogenic)
Assay type: biochemical
Stated Conditions: 10 µM
Measured Quantity: Mean % inhibition HDAC6 (%)

INSERT INTO measurements (compound, measured_quantity, value_unit, meas_value) VALUES
  ('Cc1c(C(=O)NO)sc2ncnc(Nc3cccc4[nH]cnc34)c12 [Compound 15a]', 'Mean % inhibition HDAC6', '%', 8),
  ('Cc1c(C(=O)NO)sc2ncnc(Nc3ccc(F)c(Cl)c3)c12 [Compound 15d]', 'Mean % inhibition HDAC6', '%', 4),
  ('COc1cccc(NC(=O)Nc2ccc(Nc3ncnc4sc(C(=O)NO)c(C)c34)cc2)c1 [Compound 7b]', 'Mean % inhibition HDAC6', '%', 6),
  ('Cc1c(C(=O)NCCC(=O)NO)sc2ncnc(Nc3ccc(Cl)cc3)c12 [Compound 19c]', 'Mean % inhibition HDAC6', '%', 9),
  ('Cc1c(C(=O)NCCC(=O)NO)sc2ncnc(Nc3ccc(F)c(Cl)c3)c12 [Compound 19d]', 'Mean % inhibition HDAC6', '%', 0),
  ('COc1cccc(NC(=O)Nc2ccc(Nc3ncnc4sc(C(=O)NCCC(=O)NO)c(C)c34)cc2)c1 [Compound 11b]', 'Mean % inhibition HDAC6', '%', 13),
  ('Cc1c(C(=O)NO)sc2ncnc(Nc3ccc(Cl)cc3)c12 [Compound 15c]', 'Mean % inhibition HDAC6', '%', 7),
  ('Cc1c(C(=O)NO)sc2ncnc(Nc3ccc(NC(=O)Nc4ccccc4)cc3)c12 [Compound 7a]', 'Mean % inhibition HDAC6', '%', 5);

###

Items are presented alongside their recorded melting point.
Measured Quantity: melting point (°C)

INSERT INTO measurements (compound, value_unit, meas_value) VALUES
  ('Cc1c(C(=O)NO)sc2ncnc(Nc3ccc(F)c(Cl)c3)c12 [Compound 15d]', '°C', 320),
  ('Cc1c(C(=O)NO)sc2ncnc(Nc3cccc4[nH]cnc34)c12 [Compound 15a]', '°C', 280),
  ('Cc1c(C(=O)NO)sc2ncnc(Nc3ccccc3)c12 [Compound 15b]', '°C', 200),
  ('CCOC(=O)CCNC(=O)c1sc2ncnc(Nc3ccc(NC(=O)Nc4cccc(OC)c4)cc3)c2c1C [Compound 9b]', '°C', 250),
  ('Cc1c(C(=O)NCCCC(=O)NO)sc2ncnc(Nc3ccccc3)c12 [Compound 20b]', '°C', 205),
  ('CCOC(=O)CCNC(=O)c1sc2ncnc(Nc3ccccc3)c2c1C [Compound 17b]', '°C', 206),
  ('CCOC(=O)CCNC(=O)c1sc2ncnc(Nc3ccc(NC(=O)Nc4cccc(C(F)(F)F)c4)cc3)c2c1C [Compound 9c]', '°C', 220),
  ('Cc1c(C(=O)NCCCC(=O)NO)sc2ncnc(Nc3ccc(NC(=O)Nc4ccccc4)cc3)c12 [Compound 12a]', '°C', 219);

###

System Name: UniProt:P00533
Assay Comment: In vitro EGFR tyrosine kinase inhibitory assay (Z'-LYTE, SelectScreen)
Assay type: biochemical
Stated Conditions: 10 µM single dose
Measured Quantity: inhibition at 10 µM (%)

INSERT INTO assay_data (compound, measured_quantity, meas_value) VALUES
  ('Cc1c(C(=O)NO)sc2ncnc(Nc3ccc(NC(=O)Nc4ccccc4)cc3)c12', 'inhibition at 10 µM', 48),
  ('Cc1c(C(=O)NCCC(=O)NO)sc2ncnc(Nc3ccc(Cl)cc3)c12 [Compound 19c]', 'inhibition at 10 µM', 78),
  ('Cc1c(C(=O)NCCCC(=O)NO)sc2ncnc(Nc3ccc(F)c(Cl)c3)c12 [Compound 20d]', 'inhibition at 10 µM', 97),
  ('Cc1c(C(=O)NCCCC(=O)NO)sc2ncnc(Nc3ccc(NC(=O)Nc4ccccc4)cc3)c12 [Compound 12a]', 'inhibition at 10 µM', 11);

###

System: full NCI 60 cell panel
Assay Comment: NCI one-dose screen, whole panel statistics
Assay type: cell-based, human
Stated Conditions: mean over panel, 1.00E-5 Molar
Below: a set of entries, each annotated with reported Mean Growth Percent.
Measured Quantity: Mean Growth Percent (%)

INSERT INTO assay_data (molecule, meas_value) VALUES
  ('Cc1c(C(=O)NO)sc2ncnc(Nc3cccc4[nH]cnc34)c12 [Compound 15a]', 103.12),
  ('Cc1c(C(=O)NCCC(=O)NO)sc2ncnc(Nc3ccc(F)c(Cl)c3)c12 [Compound 19d]', 104.37),
  ('Cc1c(C(=O)NO)sc2ncnc(Nc3ccc(NC(=O)Nc4ccccc4)cc3)c12', 99.34),
  ('Cc1c(C(=O)NCCCC(=O)NO)sc2ncnc(Nc3ccc(NC(=O)Nc4ccccc4)cc3)c12 [Compound 12a]', 100.71),
  ('Cc1c(C(=O)NCCC(=O)NO)sc2ncnc(Nc3ccc(NC(=O)Nc4ccccc4)cc3)c12 [Compound 11a]', 100.98),
  ('Cc1c(C(=O)NCCC(=O)NO)sc2ncnc(Nc3ccccc3)c12 [Compound 19b]', 100.57),
  ('Cc1c(C(=O)NCCCC(=O)NO)sc2ncnc(Nc3ccc(F)c(Cl)c3)c12 [Compound 20d]', 103.21),
  ('Cc1c(C(=O)NO)sc2ncnc(Nc3ccc(NC(=S)Nc4ccccc4)cc3)c12', 102.34);

###

System Name: EGFR (Homo sapiens)
Assay Comment: In vitro EGFR tyrosine kinase inhibitory assay (Z'-LYTE, SelectScreen)
Assay type: biochemical
Stated Conditions: 1000 nM compound, 10 μM ATP; read-out: % Inhibition mean, EGFR (ErbB1)
Measured Quantity: inhibition at 1 µM (%)

INSERT INTO assay_data (compound, value_unit, meas_value) VALUES
  ('Cc1c(C(=O)NO)sc2ncnc(Nc3ccc(Cl)cc3)c12 [Compound 15c]', '%', 95),
  ('Cc1c(C(=O)NCCCC(=O)NO)sc2ncnc(Nc3ccc(F)c(Cl)c3)c12 [Compound 20d]', '%', 93),
  ('Cc1c(C(=O)NCCCC(=O)NO)sc2ncnc(Nc3ccc(NC(=O)Nc4cccc(C(F)(F)F)c4)cc3)c12 [Compound 12c]', '%', 34),
  ('Cc1c(C(=O)NCCCC(=O)NO)sc2ncnc(Nc3ccccc3)c12 [Compound 20b]', '%', 85);

###

System Name: HDAC6 (Homo sapiens)
Construct: purchased BPS Bioscience 50006
Sequence (Q9UBN7 1-1215): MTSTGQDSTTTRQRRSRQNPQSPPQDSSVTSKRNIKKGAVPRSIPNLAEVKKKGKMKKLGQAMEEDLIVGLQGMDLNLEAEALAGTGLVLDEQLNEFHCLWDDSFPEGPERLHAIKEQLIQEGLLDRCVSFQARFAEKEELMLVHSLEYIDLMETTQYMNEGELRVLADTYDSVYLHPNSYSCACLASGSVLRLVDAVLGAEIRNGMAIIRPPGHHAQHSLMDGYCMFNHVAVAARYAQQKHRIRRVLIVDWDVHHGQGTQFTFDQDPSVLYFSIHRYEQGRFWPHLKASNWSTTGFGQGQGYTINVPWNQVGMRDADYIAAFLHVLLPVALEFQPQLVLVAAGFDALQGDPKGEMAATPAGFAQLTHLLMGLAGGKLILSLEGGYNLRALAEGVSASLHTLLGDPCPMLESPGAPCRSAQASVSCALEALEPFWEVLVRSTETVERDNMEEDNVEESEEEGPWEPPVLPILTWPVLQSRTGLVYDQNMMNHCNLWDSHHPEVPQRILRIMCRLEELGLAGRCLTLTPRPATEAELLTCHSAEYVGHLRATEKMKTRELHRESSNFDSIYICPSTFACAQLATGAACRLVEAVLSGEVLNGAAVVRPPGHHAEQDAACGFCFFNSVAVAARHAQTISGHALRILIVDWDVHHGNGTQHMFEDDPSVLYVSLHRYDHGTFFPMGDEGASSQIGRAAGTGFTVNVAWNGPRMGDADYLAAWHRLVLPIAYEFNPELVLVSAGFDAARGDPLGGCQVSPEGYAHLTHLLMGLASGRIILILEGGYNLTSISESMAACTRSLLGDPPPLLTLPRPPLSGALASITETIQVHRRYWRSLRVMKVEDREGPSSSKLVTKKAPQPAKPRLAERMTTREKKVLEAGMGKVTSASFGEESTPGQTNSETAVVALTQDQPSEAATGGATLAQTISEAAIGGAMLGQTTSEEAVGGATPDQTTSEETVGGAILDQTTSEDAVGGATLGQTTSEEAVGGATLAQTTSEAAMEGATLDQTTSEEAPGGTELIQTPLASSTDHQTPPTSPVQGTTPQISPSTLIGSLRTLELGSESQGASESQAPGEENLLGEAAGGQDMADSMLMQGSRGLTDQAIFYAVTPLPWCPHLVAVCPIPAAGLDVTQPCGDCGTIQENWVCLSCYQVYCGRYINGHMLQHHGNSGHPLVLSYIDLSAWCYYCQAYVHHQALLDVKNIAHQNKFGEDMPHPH
Assay Comment: In vitro HDAC6 inhibitory assay (BPS Bioscience, fluorogenic)
Type: biochemical
Stated Conditions: 10 µM
Measured Quantity: Mean % inhibition HDAC6 (%)

INSERT INTO measurements (compound, system_name, meas_value) VALUES
  ('Cc1c(C(=O)NCCC(=O)NO)sc2ncnc(Nc3ccc(NC(=O)Nc4ccccc4)cc3)c12 [Compound 11a]', 'HDAC6 (Homo sapiens)', 7),
  ('COc1cccc(NC(=O)Nc2ccc(Nc3ncnc4sc(C(=O)NCCCC(=O)NO)c(C)c34)cc2)c1 [Compound 12b]', 'HDAC6 (Homo sapiens)', 7),
  ('Cc1c(C(=O)NCCCC(=O)NO)sc2ncnc(Nc3ccc(Cl)cc3)c12 [Compound 20c]', 'HDAC6 (Homo sapiens)', 7),
  ('Cc1c(C(=O)NCCCC(=O)NO)sc2ncnc(Nc3ccc(F)c(Cl)c3)c12 [Compound 20d]', 'HDAC6 (Homo sapiens)', 9);

Data origin, for the record: paper PMC8253220
